- Read-out: Interleukin 17A (IL17A), IL17A (gene 3605)
- Protocol Summary: BSK_BT_xIL17A: BioMAP Diversity Plus: BT Assay for Interleukin 17A (IL17A) Biomarker Activity (AID 2284229)
- Measurement Context: primary human B cells with PBMC
The source made the active and inactive calls. Rule for the calls: active = hit-call score of the fitted dose curve at least 0.9, where 1 is the maximum; inactive = score below 0.9.
Allowed answers: y = active, n = inactive

CC(=O)OC(C)(C)C1CC=C(C)CC1 (configuration not stated) : n

Dear colleague, could you share the recorded outcome for `Nc1ccc(N)c([N+](=O)[O-])c1` when you have a moment? n

Can you look up the reported call for `CCOC(=O)CCCCCCCCC(=O)OCC` for me? n

For `CCC(=O)OCC=Cc1ccccc1` , which call appears in the assay record? n

Recorded test call requested for `CC(C)(C)c1cccc(O)c1` n

Short answer needed: outcome of this test for `CCCCCCCCCC(=O)OCC` ? n

Call for entry `O=S(=O)(O)C(F)(F)C(F)(F)OC(F)(F)C(F)(F)F` : n

What classification did `O=C1OC2(c3ccc(O)cc3Oc3cc(O)ccc32)c2ccccc21` end up with in this test? n

What is the recorded call for this molecule in the test? `C=C(C)C(=O)OCCC(F)(F)C(F)(F)C(F)(F)C(F)(F)C(F)(F)C(F)(F)C(F)(F)C(F)(F)F` n

# outcome recorded in this test, key = `O=C(O)C(F)(F)OC(F)(F)C(F)(F)OC(F)(F)C(F)(F)C(F)(F)C(F)(F)F` n

Each molecule tested received a call. Report the one for `CC(=O)OCC=C(C)CCC=C(C)CCC=C(C)C` . y

What call does the record list for `C=C1CC/C=C(\C)CC[C@@H]2[C@@H]1CC2(C)C` ? n

----------
- Assay Target: Estrogen receptor (Homo sapiens) (UniProt P03372)
- Sequence (P03372 whole entry, looked up, the tested form may be a part): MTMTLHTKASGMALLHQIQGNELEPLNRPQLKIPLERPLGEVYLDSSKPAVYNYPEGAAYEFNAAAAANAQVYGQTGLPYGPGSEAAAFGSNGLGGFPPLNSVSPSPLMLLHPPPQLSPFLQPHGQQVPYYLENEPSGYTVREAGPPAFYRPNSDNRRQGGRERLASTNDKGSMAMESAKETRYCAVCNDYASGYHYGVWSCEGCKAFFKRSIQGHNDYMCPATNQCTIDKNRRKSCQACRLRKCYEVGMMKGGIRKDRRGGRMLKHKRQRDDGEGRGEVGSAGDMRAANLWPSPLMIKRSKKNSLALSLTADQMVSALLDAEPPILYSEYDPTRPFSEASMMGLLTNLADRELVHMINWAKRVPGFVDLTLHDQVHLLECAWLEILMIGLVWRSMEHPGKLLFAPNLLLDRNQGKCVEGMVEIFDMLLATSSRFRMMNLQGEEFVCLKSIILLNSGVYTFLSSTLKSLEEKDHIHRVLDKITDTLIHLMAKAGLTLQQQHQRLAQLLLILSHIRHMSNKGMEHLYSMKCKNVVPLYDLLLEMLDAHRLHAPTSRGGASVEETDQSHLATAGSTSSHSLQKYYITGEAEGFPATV
- Protocol Summary: OT_ER_ERaERa_0480: Odyssey Thera (OT) 8-hour HEK293T Protein-Complementation Assay for Estrogen Receptor-alpha/-alpha Homodimer (AID 2283351);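 note: rise in fluorescence from reassembled reporter fragments on ERα LBD homodimer in nucleus or whole cell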
Inconclusive results are not listed. The source made the active and inactive calls. Rule for the calls: active = hit-call score of the fitted dose curve at least 0.9, where 1 is the maximum; inconclusive = response in the unintended direction; inactive = score below 0.9.
API: response.call in 1 (yes) for active, 0 (no) for inactive

O=S(=O)(O)c1cc(S(=O)(=O)O)c2c(N=Nc3ccccc3)c(O)ccc2c1 : 0 (no)

Hi team, can someone confirm the assay call for CC(O)CNCC(C)O (stereo not drawn) ? 0 (no)

Query: recorded result category for `FC(F)(F)c1ccc(Cl)c(Cl)c1` in this test 0 (no)

----------
- Protocol Summary: ATG_VDRE_CIS: Attagene CIS-FACTORIAL HepG2 Assay for human Vitamin D Receptor Element (VDRE) (AID 2282968)
- Measurement Context: HepG2 VDRE cis-reporter transcription, actives raise or lower the signal
- Procedure: ATG_CIS is a cell-based, multiplexed-readout assay that uses HepG2, a human liver cell line, with measurements taken at 24 hours after chemical dosing in a 24-well plate.ATG_VDRE_CIS is one of 52 assay component(s) measured or calculated from the ATG_CIS assay. […] This assay endpoint, ATG_VDRE_CIS, was analyzed with bidirectional fitting relative to DMSO as the negative control and baseline of activity. […]
Calls of active or inactive are those of the source. Rule for the calls: active = hit-call score of the fitted dose curve at least 0.9, where 1 is the maximum; inactive = score below 0.9.
Form entry, call: pick from true (1) = active, false (0) = inactive

Below, 6 compounds whose answers are already recorded.
CCCCCC(=O)O[C@]1(C(C)=O)CC[C@H]2[C@@H]3CCC4=CC(=O)CC[C@]4(C)[C@H]3CC[C@@]21C : true (1)
CC(=O)c1ccc2ccccc2c1 : false (0)
COc1ccccc1O : false (0)
CCCCOC(=O)C(C)OC(=O)CCC (stereo not given) : false (0)
CCCC1CCOC(C)S1 (stereo not given) : false (0)
CCO[Si](CC)(OCC)OCC : false (0)

I would be grateful if you could indicate the recorded call for `CCOc1ccc(NC(C)=O)cc1` . false (0)

What was the test verdict on CCCCCCC(O)CCOC(C)=O (stereo not given) ? false (0)

----------
- Protocol Summary: ATG_PPRE_CIS: Attagene CIS-FACTORIAL HepG2 Assay for human Peroxisome Proliferator-activated Response Element (PPRE) (AID 2282958)
- Measurement Context: HepG2 PPRE cis-element reporter, Attagene transcription factor profiling; actives raise or lower the signal
Calls of active or inactive are those of the source. The calls were made as follows: active = hit-call score of the fitted dose curve at least 0.9, where 1 is the maximum; inactive = score below 0.9.
The reply should name one outcome from active, inactive

Called result for `O=C1CCCCCCCCCCCC(=O)OCCO1` inactive

In this assay, the call recorded for `O=Cc1ccccc1O` was what? inactive

Each compound tested received a call. Report the one for `CC(C)(O)C(=O)c1ccc(OCCO)cc1` . inactive

Test call, this compound: `CC/C=C\CCOC(=O)C(C)C` inactive

Please share the test call associated with `CC(C)COC(=O)c1ccccc1` . inactive

Which result was noted for this compound in the test: `CC(=O)CCc1ccc(O)cc1` inactive

// outcome(item) with item = `c1ccc2scnc2c1` inactive

Assay result, entry `CC(C)(C)c1cccc(O)c1` — outcome? inactive

Answer briefly: the call reported for `NS(=O)(=O)c1cc(C(=O)O)c(NCc2ccco2)cc1Cl` in this assay. inactive

Name the outcome recorded for `CCCO` in the assay. inactive

What did the test return for CCCCC(CC)COCCO (stereo not given) ? inactive

Test call for this compound, please: `CC(C)Cc1ccccc1` inactive

Hi, do you know how `CC(=O)Nc1cc(S(=O)(=O)O)cc2cc(S(=O)(=O)O)c(N=Nc3ccccc3)c(O)c12` came out in this test? inactive

# fetch the recorded call for `NC(=O)NC(N)=O` here inactive

Hi, sorry to bother you, what did the test record for `CCCCCc1cccc(=O)o1` ? inactive

Returns: the outcome recorded for CCC(C)(C)C1CCC(OC)CC1 (stereo not given) in this assay. inactive

So what was the verdict on `O=C(O)C1=NN(c2ccc(S(=O)(=O)O)cc2)C(=O)C1` in this test? inactive

Please indicate how the test categorized `Nc1cc([N+](=O)[O-])ccc1C(=O)O` . inactive

Which outcome did this test record for the compound `O=C1CCC(=O)N1` ? inactive

Which outcome did this test record for the compound `CC(C)C(=O)OCC=Cc1ccccc1` ? inactive

----------
- Read-out: Interferon-gamma inducible Protein 10 (IP10), CXCL10 (gene 3627)
- Protocol Summary: BSK_BE3C_IP10: BioMAP Diversity Plus: BE3C Assay for Interferon-gamma inducible Protein 10 (IP10) Biomarker Activity (AID 2283034)
- Measurement Context: primary human bronchial epithelial cells; actives raise or lower the signal
Activity calls are given as the source filed them. How the source made its calls: active means hit-call score of the fitted dose curve at least 0.9, where 1 is the maximum; inactive means score below 0.9.
Measured Endpoint: AC50

Look over these answered cases.
C=C(F)C(=O)OC(C(F)(F)F)C(F)(F)F : inactive
C#C[C@]1(O)CC[C@H]2[C@@H]3CCc4cc(O)ccc4[C@H]3CC[C@@]21C : inactive
CCCCCCCC1CCCC1=O (stereo not drawn) : 33.5 µM (active)
OCCN1CCOCC1 : inactive
C=C1CC/C=C(\C)CC[C@@H]2[C@@H]1CC2(C)C : 28.6 µM (active)

Here are 3 compounds. What values of AC50 were reported for them?
1. CC=CC(=O)C1=C(C)C=CCC1(C)C
2. CCC(=O)OCC=Cc1ccccc1
3. CC(=O)CCC=C(C)CCC=C(C)C

["inactive", "inactive", "inactive"]

Consider the following items and state reported AC50 for each.
1. O=C(c1ccc(OCCN2CCCCC2)cc1)c1c(-c2ccc(O)cc2)sc2cc(O)ccc12
2. CC(C)Cc1ccc(C(C)C(=O)O)cc1 (stereo not drawn)
3. c1ccc2c(c1)-c1ccc3ccc4cccc5cc-2c1c3c45
4. CCOC(=O)C=Cc1ccccc1
5. COc1ccccc1NC(=O)CC(C)=O

1. 39.2 µM (active)
2. inactive
3. inactive
4. inactive
5. inactive

----------
- Read-out: Cytochrome P450 (CYP1A2), CYP1A2 (gene 1544)
- Protocol Summary: LTEA_HepaRG_CYP1A2: Life Technologies and Expression Analysis (LTEA) Assay for Cytochrome P450 (CYP1A2) using HepaRG (AID 2283479)
- Measurement Context: mRNA level, 48 h; actives raise or lower the signal
Activity calls are given as the source filed them. The calls were made as follows: active = hit-call score of the fitted dose curve at least 0.9, where 1 is the maximum; inactive = score below 0.9.
Field 'call' accepts active, inactive

See these solved cases before continuing.
C[C@]12CC[C@@H]3c4ccc(O)cc4CC[C@H]3[C@@H]1CC[C@@H]2O : active
C#C[C@]1(O)CC[C@H]2[C@@H]3CCc4cc(O)ccc4[C@H]3CC[C@@]21C : inactive
O=C(c1ccc(OCCN2CCCCC2)cc1)c1c(-c2ccc(O)cc2)sc2cc(O)ccc12 : inactive
COC(=O)c1ccc(C(=O)OC)cc1 : inactive

What classification did `CCCCOCCOCCO` end up with in this test? inactive

----------
- Assay Target: human Thyroid Receptor alpha (THRa1), THRA (gene 7067)
- Protocol Summary: ATG_THRa1_TRANS: Attagene TRANS-FACTORIAL HepG2 Assay for human Thyroid Receptor alpha (THRa1) (AID 2283014)
- Protocol: ATG_TRANS is a cell-based, multiplexed-readout assay that uses HepG2, a human liver cell line, with measurements taken at 24 hours after chemical dosing in a 24-well plate.ATG_THRa1_TRANS is one of 30 assay component(s) measured or calculated from the ATG_TRANS assay. […] This assay endpoint, ATG_THRa1_TRANS, was analyzed in the positive analysis fitting direction relative to DMSO as the negative control and baseline of activity. […]
Inconclusive results are not listed. The source made the active and inactive calls. How the source made its calls: active means hit-call score of the fitted dose curve at least 0.9, where 1 is the maximum; inconclusive means response in the unintended direction; inactive means score below 0.9.
Mark one answer only. Choices: active, inactive

Solved entries (count: 2):
CC(=N[Si](C)(C)C)O[Si](C)(C)C : inactive
CC(C)N1C(=O)c2ccccc2C1=O : inactive

Identify the outcome logged in this assay for the compound shown: CCCCCC1C(=O)CCC1CC(=O)OC (stereo unspecified) inactive

Please indicate how the test categorized `CC(=O)CC(=O)N(C)C` . inactive

Hello, I am checking results. What call was entered for `CC1=CC[C@@H]2C[C@H]1C2(C)C` ? inactive

Per the records of this test, what outcome belongs to `CCOc1ccc(NC(C)=O)cc1` ? inactive
